# System: HeLa
# protocol: Inhibition of X4-tropic HIV1 envelope glycoprotein-mediated cell-cell fusion between viral envelope expressing human virus-infected HeLa ADA cells to human HeLa P5 cells at 5 uM after 16 hrs by beta-galactosidase reporter gene assay using chemiluminescence method
# Format: cell-based
# protocol conditions: Human immunodeficiency virus 1
Calls of active or inactive are those of the source. The calls are words filed in the database; no cut-off is given here.

chemical structure	inhibition
C=C(C)[C@@H]1CC[C@]2(C)CC[C@]3(C)[C@H](CC[C@@H]4[C@@]5(C)CC[C@H](OC(C)=O)C(C)(C)[C@@H]5CC[C@]43C)[C@@H]12	15%
C=C(C=O)[C@@H]1CC[C@]2(C)CC[C@]3(C)[C@H](CC[C@@H]4[C@@]5(C)C=CC(=O)C(C)(C)[C@@H]5CC[C@]43C)[C@@H]12	44%
C=C(C=O)[C@@H]1CC[C@]2(C)CC[C@]3(C)[C@H](CC[C@@H]4[C@@]5(C)CC[C@H](OC(C)=O)C(C)(C)[C@@H]5CC[C@]43C)[C@@H]12	6%
C=C(C)[C@@H]1CC[C@]2(CO)CC[C@]3(C)[C@H](CC[C@@H]4[C@@]5(C)CC[C@H](O)C(C)(C)[C@@H]5CC[C@]43C)[C@@H]12	34%
CC(=O)O[C@H]1CC[C@]2(C)[C@H]3CC[C@@H]4[C@]56O[C@H]5C(C)(C)CC[C@]6(C)CC[C@@]4(C)[C@]3(C)CC[C@H]2C1(C)C	inactive
C=C(C)[C@@H]1CC[C@]2(C)CC[C@]3(C)[C@H](CC[C@@H]4[C@@]5(C)CC[C@H](O)C(C)(C)[C@@H]5CC[C@]43C)[C@@H]12	inactive
C=C(C)[C@@H]1CC[C@]2(C)CC[C@]3(C)[C@H](CC[C@@H]4[C@@]5(C)CC/C(=N\O)C(C)(C)[C@@H]5CC[C@]43C)[C@@H]12	23%
CC(=O)O[C@H]1CC[C@]2(C)[C@H]3CC[C@@H]4[C@H]5[C@H]([C@@]6(C)CO6)CC[C@]5(C)CC[C@@]4(C)[C@]3(C)CC[C@H]2C1(C)C	6%
C=C(C=O)[C@@H]1CC[C@]2(CO)CC[C@]3(C)[C@H](CC[C@@H]4[C@@]5(C)CC[C@H](O)C(C)(C)[C@@H]5CC[C@]43C)[C@@H]12	10%
CC1(C)C=C2[C@H]3CC[C@@H]4[C@@]5(C)CC[C@H](O)C(C)(C)[C@@H]5CC[C@@]4(C)[C@]3(C)CC[C@@]2(C)CC1	inactive
C=C(C=O)[C@@H]1CC[C@]2(C)CC[C@]3(C)[C@H](CC[C@@H]4[C@@]5(C)CC[C@H](O)C(C)(C)[C@@H]5CC[C@]43C)[C@@H]12	inactive
C=C(C)[C@@H]1CC[C@]2(C)CC[C@]3(C)[C@H](CC[C@@H]4[C@@]5(C)CCC(=O)C(C)(C)[C@@H]5CC[C@]43C)[C@@H]12	inactive
